- Study Target: Son of sevenless homolog 1 (Homo sapiens)
- Experiment Summary: Activation of SOS1 in human NCI-H727 cells expressing KRAS G12V mutant assessed as induction of ERK1/2 T202/Y204 phosphorylation at 1.5 to 100 uM (higher range) incubated for 30 mins by In-cell Western assay
- Format: cell-based
The source made the active and inactive calls. The rule behind the calls is not given here.
Your reply should match one of these outcome classes. active, inactive

Call for entry `Cc1cc(Cn2c(N3CCNCC3)nc3c(-c4ccccc4Cl)cc(Cl)cc32)cc(C)c1F` : inactive

# repeat for `Cc1cc(Cn2c(N3CC4(CNC4)C3)nc3c(-c4c(C)n[nH]c4C)cc(Cl)cc32)cc(C)c1F` active

# repeat for `Cc1nc(N)ncc1-c1cc(Cl)cc2c1nc(N1CC3(CNC3)C1)n2Cc1ccc(F)cc1` inactive

# repeat for `Cc1cc(Cn2c(N3CCNCC3)nc3c(N4CCC[C@H]4CN)cc(Cl)cc32)cc(C)c1F` active

# repeat for `Cc1ncncc1-c1cc(Cl)cc2c1nc(N1CC3(CNC3)C1)n2Cc1ccc(F)cc1` inactive

# repeat for `Cc1cc(Cn2c(N3CC4(CNC4)C3)nc3c(-c4cncnc4C)cc(Cl)cc32)cc(C)c1F` active

###

- Study Target: Son of sevenless homolog 1 (Homo sapiens, UniProt Q07889)
- Sequence (Q07889 whole entry, the tested form may be a part): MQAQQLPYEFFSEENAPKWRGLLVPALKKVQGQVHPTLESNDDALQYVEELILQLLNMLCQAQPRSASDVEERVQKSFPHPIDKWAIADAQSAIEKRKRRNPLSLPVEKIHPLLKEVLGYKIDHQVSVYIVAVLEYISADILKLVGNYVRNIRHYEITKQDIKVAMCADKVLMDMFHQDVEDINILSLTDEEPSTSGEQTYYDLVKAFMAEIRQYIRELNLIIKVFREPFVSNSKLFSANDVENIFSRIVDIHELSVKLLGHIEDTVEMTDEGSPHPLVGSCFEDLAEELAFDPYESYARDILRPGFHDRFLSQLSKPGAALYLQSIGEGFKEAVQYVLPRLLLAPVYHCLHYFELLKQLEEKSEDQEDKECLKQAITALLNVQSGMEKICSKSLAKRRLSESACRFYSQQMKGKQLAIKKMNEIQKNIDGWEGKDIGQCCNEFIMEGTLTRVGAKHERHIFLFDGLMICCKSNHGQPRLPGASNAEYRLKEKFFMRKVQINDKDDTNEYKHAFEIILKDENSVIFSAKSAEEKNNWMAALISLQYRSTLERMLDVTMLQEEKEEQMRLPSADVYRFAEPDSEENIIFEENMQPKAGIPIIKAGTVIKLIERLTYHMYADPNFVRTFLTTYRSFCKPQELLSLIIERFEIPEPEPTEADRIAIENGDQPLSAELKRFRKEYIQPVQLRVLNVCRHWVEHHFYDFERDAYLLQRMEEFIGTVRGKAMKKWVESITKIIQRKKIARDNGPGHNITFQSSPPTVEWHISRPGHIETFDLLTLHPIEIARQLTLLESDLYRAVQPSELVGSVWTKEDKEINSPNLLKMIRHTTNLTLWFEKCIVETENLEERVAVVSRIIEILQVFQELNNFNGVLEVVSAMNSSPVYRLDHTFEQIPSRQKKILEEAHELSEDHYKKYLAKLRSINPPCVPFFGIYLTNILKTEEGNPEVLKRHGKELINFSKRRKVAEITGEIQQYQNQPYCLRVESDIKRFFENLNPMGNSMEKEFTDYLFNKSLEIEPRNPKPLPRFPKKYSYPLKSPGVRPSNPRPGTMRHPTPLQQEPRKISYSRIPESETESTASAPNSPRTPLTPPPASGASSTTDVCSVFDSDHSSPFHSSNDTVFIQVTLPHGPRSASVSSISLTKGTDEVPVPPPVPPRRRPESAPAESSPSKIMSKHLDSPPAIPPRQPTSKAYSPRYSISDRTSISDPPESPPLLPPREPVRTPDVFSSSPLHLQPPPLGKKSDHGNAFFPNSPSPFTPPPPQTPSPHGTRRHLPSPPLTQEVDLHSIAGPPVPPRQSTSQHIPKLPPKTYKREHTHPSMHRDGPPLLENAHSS
- Experiment Summary: Binding affinity to human recombinant N-terminal His6-tagged SOS1 (564 to 1049 residues) expressed in BL21-RIL Escherichia coli by fluorescent probe S1 based fluorescence polarization anisotrophy saturation binding assay
Examples of compounds with documented Kd follow.
State the answer as a number, implicitly in nM.

These solved cases illustrate the format of a correct answer.
| Smiles Input | Kd, nM |
| --- | --- |
| Cc1cc(Cn2c(N3CCNCC3)nc3c(-c4ccccc4C4CCC4)cc(Cl)cc32)cc(C)c1F | 440 |
| Cc1cc(Cn2c(N3CCNCC3)nc3c(-c4ccc(C(F)(F)F)cc4)cc(Cl)cc32)cc(C)c1F | 1050 |

Okay, now this compound:
So what's the measured Kd for this one? `Cc1cc(Cn2c(N3CCNCC3)nc3c(-c4cccnc4)cc(Cl)cc32)cc(C)c1F` 330

###

- Study Target: Son of sevenless homolog 1 (Homo sapiens) (UniProt Q07889)
- Experiment Summary: Activation of human recombinant N-terminal His6-tagged SOS1 (564 to 1049 residues) expressed in BL21-RIL Escherichia coli assessed as SOS1-RAS complex formation by measuring exchange of GTP to BODIPY-GDP measured every 3 secs for 30 mins by nucleotide exchange assay relative to control
- Parameters: concentration or dose not given beside the values
Quantity: Activity (%)
State the answer as a number, implicitly in %.

These solved cases illustrate the format of a correct answer.
| Smiles Input | Study Target | Activity (%) |
| --- | --- | --- |
| Fc1ccc(Cn2c(N3CCNCC3)nc3ccc(C4CC4)cc32)cc1Cl | Son of sevenless homolog 1 (Homo sapiens) (UniProt Q07889) | 65 |
| Cc1ccc(Cn2c(N3CCNCC3)nc3cc(C)c(C)cc32)cc1 | Son of sevenless homolog 1 (Homo sapiens) (UniProt Q07889) | 93 |

Okay, now this compound:
So what's the measured Activity for this one? `Fc1ccc(CN2C3=NCCCN3c3ccccc32)cc1` 40

###

Examples of compounds with documented pKd follow.
- Study Target: Son of sevenless homolog 1 (Homo sapiens, UniProt Q07889)
- Experiment Summary: Binding affinity to human recombinant N-terminal His6-tagged SOS1 (564 to 1049 residues) expressed in BL21-RIL Escherichia coli by fluorescent probe S3 based fluorescence polarization anisotrophy saturation binding assay
Field pKd (float): negative decimal logarithm of the concentration in molar.

These solved cases illustrate the format of a correct answer.
| Smiles Input | pKd |
| --- | --- |
| Cc1cc(Cn2c(N3CC4(CNC4)C3)nc3c(N4CCN(C)CC4)cc(Cl)cc32)cc(C)c1F | 7.36 |
| Cc1cc(Cn2c(N3CC4(CNC4)C3)nc3c(-c4c(C)n[nH]c4C)cc(Cl)cc32)cc(C)c1F | 8.05 |
| Cc1nc(N)ncc1-c1cc(Cl)cc2c1nc(N1CC3(CNC3)C1)n2Cc1ccc(F)cc1 | 7.44 |
| Cc1cc(Cn2c(N3CC4(CNC4)C3)nc3c(-c4ccccc4Cl)cc(Cl)cc32)cc(C)c1F | 7.92 |
| Cc1cc(Cn2c(N3CC4(CNC4)C3)nc3c(-c4cnc(N)nc4C)cc(Cl)cc32)cc(C)c1F | 7.92 |

So what's the measured pKd for this one? `Cc1cc(Cn2c(N3CC4(CNC4)C3)nc3c(-c4cncnc4C)cc(Cl)cc32)cc(C)c1F` 7.80
